# system tested: T1, Monomeric 8-histidine tagged human EGFRvIII extracellular domain (human, UniProt P00533 298-645)
# T1 construct: Analyte in all SPR assays; not shown: 8-histidine tag
# assay: SPR, captured by anti-mouse Fc, 37 C
experimental endpoint: koff
Write the numeric value and follow it with the unit.

Fill in: koff of 11F10 (antibody, V domains shown, Hybridoma supernatant (AlivaMab mouse); captured/detected via mouse Fc) VH: QVTLKESGPVLVKPIETLTLTCTVCGFSLSNPRMGVSWIRQPPGKALEWLGHIFSSDEKSYRLFLRSRLSISKDTSKSQVVLTMTNMDPVDTATYYCARDSSDYEGYFDYWGQGTLVTVSS VL: EIVMTQSPATLSVSPGERTTLSCRASQSVGSNLAWYQQKPGQAPRLLIYGASTRASGVPARFSGSGSGTEFTLTISSLQSEDFAVYSCQEYNNWPFTFGQGTKVEIK is ___
0.00281 s⁻¹

Fill in: koff of 12B2 (antibody, V domains shown, Hybridoma supernatant (AlivaMab mouse); captured/detected via mouse Fc) VH: QVTLKESGPVLVKPTETLTLTCTVSGFSLSNPRMGVSWIRQPPGKALEWLGHIFSSDEKSYRLSLRSRLSISKDTSKSQVVLTMTNMDPVDTATYYCVRDSSNYGGYFDYWGQGTLVTVSS VL: EVVMTQSPATLSVSPGERATLSCRASQSVINNLAWYQQKPGQAPRLLIYGTSTRATDIPARFSGSGSGTEFTLTISSLQSEDFAVYYCQDYNNWPFTFGPGTKVDIK is ___
0.00179 s⁻¹

Fill in: koff of 29D5 (antibody, V domains shown, Hybridoma supernatant (AlivaMab mouse); captured/detected via mouse Fc) VH: QVTLKESGPVLVKPTETLTLTCTVSGFSLSNPRMGVSWLRQPPGKALEWFAHIFSTDEKSYSPSLRGRLTVSKDTSKSQVVLTLTNMDPVDTATYYCARDSSNYEGYFDYWGQGTLVTVSS VL: KIVMTQSPATLSVSPGERATLSCRANQIVSSNLAWYQQKPGQAPRLLVFGTSTRATGIPIRFSGSGSGTEFTLTVSSLQSEDFAVYVCQQYNDWPFTFGPGTKVDIK is ___
0.00424 s⁻¹

Fill in: koff of 20E12 (antibody, V domains shown, Hybridoma supernatant (AlivaMab mouse); captured/detected via mouse Fc) VH: EVNLVESGGGLVKPGGSLRLSCEASGFTFSYAWMSWVRQAPGKGLEWVGRIKSIADGGATDYAAPVRNRFTISRDDSRNTLYLEMHSLKTEDTAVYYCTTIPGNDAFDMWGQGTMVTVSS VL: DIVLTQSPLSLSVTPGEPASISCRSSQSLLYSNGKNYLDWFLHKPGQSPQLLIYLGSNRASGVPDRFSGSGSGIDFILKISRVEAEDVGVYYCMQAQQTPITFGQGTRLEIK is ___
0.0141 s⁻¹

Fill in: koff of 14C11 (antibody, V domains shown, Hybridoma supernatant (AlivaMab mouse); captured/detected via mouse Fc) VH: QVTLKESGPVLVKPTETLTLTCTVSGFSLNNARMGVSWIRQPPGKALEWFAHIFSTDEKSFRTSLRSRLTLSKDTSKSQVVLTMTNMDPVDTATYYCARDSSNYEGYFDYWGQGILVTVSS VL: EIVMTQSPATLSVSPGERATLSCRASQSVSNNLAWYQQKPGQAPRLLIYGASTRATGVPARFSGSDSGTEFSLTISSLQSEDFAVYFCQQYKDWPFTFGPGTKVEIK is ___
0.00593 s⁻¹

Fill in: koff of 21E7 (antibody, V domains shown, Hybridoma supernatant (AlivaMab mouse); captured/detected via mouse Fc) VH: QVTLEESGPVLVKPTETLTLTCTVSGFSLSNARMGVSWIRQPPGKAPEWFAHIFSTDEKSLRLSLRSRLTLSKDTSKSQVVLTMTNMDPVDTATYYCARDSSNYEGYFDYWGQGTLVTVSS VL: DVVLTQSPATLSVSPGERATLSCRASQSVNSNLAWYQQNPGQAPRLLIFGSSTRATGIPASFSGSGSGTEFTLTINSLQSEHSAVYYCQQYNDWPFTFGPGTKVDIK is ___
0.0013 s⁻¹

Fill in: koff of 20G5 (antibody, V domains shown, Hybridoma supernatant (AlivaMab mouse); captured/detected via mouse Fc) VH: EVQLVESGGDLVKPGGSLRLSCAASGFTFTNAWMSWVRQAPGKGLEWVGRIKSKIDGGTTDYAAPVKGRFIISRDDSKNTLSLQMNSLKTEDTAMYYCTTAPGGPFDYWGQGSLVTVSS VL: DIVLTQSPLSLPVTPGEPASISCRSSQSLLYSDRRNYLDWFLQKPGQSPHLLIYLGSYRASGVPDRFSGSGSGTDFTLKISRVEAEDVGVYYCMQALQIPITFGQGTRLEIK is ___
0.0289 s⁻¹

Fill in: koff of 20B9 (antibody, V domains shown, Hybridoma supernatant (AlivaMab mouse); captured/detected via mouse Fc) VH: QVTLKESGPVLVKPTETLTLTCTVSGFSLSNARMGVSWIRQPPGKALEWLGHIFSTDEKSYSTSLRGRITISKDTSRGLVVLTLTNMDPVDTATYYCARDSSNYEGYFDFWGPGFLVTVSS VL: EIVMTQSPATLSVSPGERATLSCRVSQSIGANLAWYQQKFGQAPRLLIYGASTRATGIPVRFSGGGSGTEFTLTISSLQSEDFAIYSCQQYIYWPFTFGPGTTVDIK is ___
0.0015 s⁻¹

Fill in: koff of 30D8 (antibody, V domains shown, Hybridoma supernatant (AlivaMab mouse); captured/detected via mouse Fc) VH: EVQLVESGGGLVKPGGSLRLSCEASGFTFSDAWMSWVRQAPGKGLEWVGRIKSKTDGGTTDYVVPLNGRFIISRDDSRNTLYLQLNNLKTEDTAVYYCTTVPGSYGYWGQGTLVTVSS VL: DIVMTQSPLSLPVTPGEPASISCRSSQSLLHNKRNNYLDWFLQKPGQSPQLLIYLASNRASGVPDRFSGGGSGTDFTLKISRVEAEDVGVYYCMQAQQTPITFGQGTRLEIK is ___
0.0277 s⁻¹

Fill in: koff of 19A9 (antibody, V domains shown, Hybridoma supernatant (AlivaMab mouse); captured/detected via mouse Fc) VH: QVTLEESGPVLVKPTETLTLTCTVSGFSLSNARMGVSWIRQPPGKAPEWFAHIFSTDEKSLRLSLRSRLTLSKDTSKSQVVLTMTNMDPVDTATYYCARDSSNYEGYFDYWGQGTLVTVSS VL: EVVMTQSPATLSVSPGERATLSCRASQSVNRNLAWYQQKPGQAPRLLIFGTSTRATGIPARFSGSGSGTEFTLTIDSLQSEHSGLYYCQQYNDWPFTFGPGTKVDIK is ___
0.00104 s⁻¹
